IC50 values, listed per item
tested on: 22Rv1 cells; assay: Prostate cancer cell growth assay, single compound (CellTiter-Glo); format: cell-based; conditions: Homo sapiens, 120 h; 22Rv1 cell growth, 5 days incubation, n=3; read-out: IC50 (geometric mean)
# number then unit; no other words

[
  {
    "compound": "Cc1noc(C)c1-c1cnc2c(-c3ccc(C(=O)O)cc3)cn(C(C)(c3ccccn3)c3ccccn3)c2c1",
    "IC50": "0.034 µM"
  }
]

Q) IC50 for CC(=O)O[C@H]1CC[C@@]2(C)C(=CC[C@@H]3[C@@H]2CC[C@]2(C)C(c4cccnc4)=CC[C@@H]32)C1 [Abiraterone acetate, abiraterone acetate, reference compound] ?
A) 42 µM
